Provenance of the data: the nanobody polyreactivity screen of Harvey et al. (2022)

assay-summary: yeast display, Sf9 membrane polyspecificity reagent, FACS + sequencing; frameworks hold sequencing errors
measure: polyreactivity (PSR sort gate)

residue-codes: QVQLVESGGGLVQAGGSLRLSCAASGSIFGYYAMGWYRQAPGKERELVARIRSTGSTNYADSVKGRFTISRDNAKNTVYLQMNSLKPEDTAVFYCNKLAHRKGGYWGQGTQVTVSS
result: high polyreactivity
--
residue-codes: QVQLVESGGGLVQAGGSLRLSCAASGRIFRTYAMGWYRQAPGKERELVAAISYSGGSTFYADSVKGRFTISRDNAKNTVYLQMNSLKPEDTAVYYCAADSRAKRYYWGQGTQVTVSS
result: high polyreactivity
--
residue-codes: QVQLVESGGGLVQAGGSLRLSCAPSGFTFGYYAMGWYRQAPGKERELVAAITYSGGSTYYADSVKGRFTISRDNAKNTVYLQMNSLKPEDTAVYYCNAYDRRYYYGRWYGEFDYWGLGTQVTVSS
result: low polyreactivity
--
residue-codes: QVQLQESGDGLVQAVGSLRLSCAASGYISGYYYMGWYRQAPGKERELVAGIEAFGSSTNYADCVKGRFTISRDNAKNTVYLQMNSPKPEDTAVYYCAAEYDDWDYHWYWGQGTQVTVSS
result: low polyreactivity
--
residue-codes: QVQLVESGGGLVQAGGSLRLSCAASGSTYHYAMGWYRQAPGKERELVASITWRGDTTYYADSVKGRFTISRDNAKNTVYLQMNSLKPEDTAVYYCAARKFFRQGGKRYDYWGQGTQVTVSS
result: high polyreactivity
